# System: SK-OV-3 ovarian
# experimentDescription: NCI-60 one-dose screen, 48 h
# reportedConditions: 10 µM unless noted
# Method: Growth inhibition of the SK-OV-3 human tumor cell line is measured as a screen for anti-cancer activity. Cells are grown in 96 well plates and exposed to the test compound for 48 hours. Compounds are tested at a single concentration, which is 10^-5 M for most compounds. The reported endpoint is percent growth (GI% or GIPRCNT), where numbers from 0 - 100% represent growth inhibition, and numbers from -100% - 0 represent cell death. For example, a value of 40 represents 60% growth inhibition. […]
This is part of a sample that, as a whole, favours compounds with a hit. Of some 83,000 tested, about 20% had one in any assay. Active and inactive are the calls of the source. The calls were made as follows: active = growth percent below 10; inactive = the rest.
Your answer must be one of the following: 1 for active, -1 for inactive

I'd appreciate the recorded outcome for "CCOC(=O)c1c(NC(=O)c2ccc(C(C)C)cc2)sc2c(CN(C)C)c(O)ccc12" from this test. -1

I'd appreciate the recorded outcome for "COC(=O)c1c2c(c(C)[n+]([O-])c1C)C(=O)C(NCc1ccc(Cl)cc1)=CC2=O" from this test. -1

I'd appreciate the recorded outcome for "Cn1cc(-c2csc(-c3c[nH]c4ccc(Br)cc34)n2)c2cnccc21" from this test. 1

I'd appreciate the recorded outcome for Nc1nc(=S)c2ncn(C3OC(COP(=O)(O)O)C(O)C3O)c2[nH]1 (stereo not given) from this test. 1

I'd appreciate the recorded outcome for "COc1cccc(NC(=O)Cn2cc(CN3CCN(c4ccnc5cc(Cl)ccc45)CC3)nn2)c1" from this test. -1
